Target: human M1 receptor (hCHRM1) (Homo sapiens)
Sequence (P11229 whole entry): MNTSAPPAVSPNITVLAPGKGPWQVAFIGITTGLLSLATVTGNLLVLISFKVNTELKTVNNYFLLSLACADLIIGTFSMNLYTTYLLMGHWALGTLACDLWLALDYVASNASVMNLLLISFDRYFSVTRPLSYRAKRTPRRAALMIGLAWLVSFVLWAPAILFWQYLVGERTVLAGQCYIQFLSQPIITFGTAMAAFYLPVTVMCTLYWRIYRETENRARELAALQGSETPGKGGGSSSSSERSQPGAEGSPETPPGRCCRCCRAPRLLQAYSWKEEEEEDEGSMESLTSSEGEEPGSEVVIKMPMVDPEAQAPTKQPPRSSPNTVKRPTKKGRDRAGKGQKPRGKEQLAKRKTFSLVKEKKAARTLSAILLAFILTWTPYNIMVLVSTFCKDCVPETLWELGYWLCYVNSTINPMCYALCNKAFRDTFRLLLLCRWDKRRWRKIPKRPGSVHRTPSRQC
Experiment: Measurement of M1 receptor positive allosteric modulator (M1PAM) activity, calcium fluorescence (FLIPRtetra) in CHO-K1 cells in the presence of acetylcholine at EC20
Details: inflection point of M1PAM activity, in the presence of acetylcholine at EC20 (final 0.6 nM), CHO-K1 cells expressing hCHRM1; read-out: IP value
quantity: EC50 (nM)

For orientation, consider the following solved cases.
EC50 for Cn1cc(-c2ccc(CN3Cc4ncnc(Oc5ccc(C(F)F)cc5F)c4C3=O)cc2)cn1 is 9.3

EC50 for Cn1cc(-c2ccc(CN3Cc4ccnc(Oc5c(F)cccc5Cl)c4C3=O)cc2)cn1 is 25

EC50 for Cc1cc(-c2ccc(CN3Cc4ccnc(Oc5c(F)cc(F)cc5C5CC5)c4C3=O)cc2)cnn1 is 76

EC50 for C[C@@H](O)[C@@H](C)Oc1nccc2c1C(=O)N(Cc1ccc(F)cc1F)C2 is 88

EC50 for Cn1cc(-c2ccc(CN3Cc4cccc(Oc5c(F)cccc5C#N)c4C3=O)c(Cl)c2)cn1 is 72

(A) COc1cccc(F)c1Oc1nccc2c1C(=O)N(Cc1ccc(-c3cn(C)nc3C)cc1)C2
(B) Cn1cc(-c2ccc(CN3Cc4ncnc(OCc5ccc(F)cc5F)c4C3=O)cc2)nn1
(C) Cn1cc(-c2ccc(CN3Cc4cccc(Oc5c(F)cccc5C#N)c4C3=O)cc2)cn1
Rank the 3 molecules: largest EC50 first, smallest last. A complete answer lists every label in the requested sequence.
A, C, B

(1) CNC(=O)c1ccc(CN2Cc3ccnc(Oc4ccc(C(F)(F)F)cc4F)c3C2=O)cc1F
(2) CC(C)n1cc(-c2ccc(CN3Cc4cccc(Oc5c(F)cc(C#N)cc5F)c4C3=O)cn2)cn1
(3) Cn1ccc(-c2ccc(CN3Cc4ccnc(OCC5CCCO5)c4C3=O)c(F)c2)n1 (stereo not shown)
(4) O=C1c2c(cccc2O[C@@H]2COCC[C@H]2O)CN1Cc1ccc(Br)cc1 (single isomer, unassigned)
Rank the 4 molecules: largest EC50 first, smallest last. A complete answer lists every label in the requested sequence.
4, 2, 1, 3
(4: 130 nM, 2: 70 nM, 1: 30 nM, 3: 10 nM)

(a) O=C1c2c(ccnc2OCC2CCCO2)CN1Cc1ccc(-c2cnn(CC(F)(F)F)c2)cc1 (stereo not shown)
(b) CCC(O)COc1nccc2c1C(=O)N(Cc1ccc(-c3cn(C)nc3C)cc1)C2 (single isomer, unassigned) [Example 277]
(c) O=C1c2c(cccc2O[C@H]2CCC[C@@H]2O)CN1Cc1ccc(-n2cccn2)cc1 (relative stereo)
Put the items in order so that reported EC50 rises from first to last. A complete answer lists every label in the requested sequence.
a, b, c

----------
Biological target: human M1 receptor (hCHRM1) (Homo sapiens)
Construct: expressed in transfected cells; host or cells: CHO-K1
Experiment: Measurement of M1 receptor positive allosteric modulator (M1PAM) activity, calcium fluorescence (FLIPRtetra) in CHO-K1 cells in the presence of acetylcholine at EC20
Type: cell-based
Conditions: test compound 10 μM, in the presence of acetylcholine at EC20 (final 0.6 nM), CHO-K1 cells expressing hCHRM1
quantity: activity (%) at 10 μM

activity (%) at 10 μM for Cc1cc(F)cc(F)c1Oc1nccc2c1C(=O)N(Cc1ccc(-c3ccn(C)n3)cc1)C2 is 96

activity (%) at 10 μM for O=C1c2c(ccnc2OCC2CCCO2)CN1Cc1ccc(-c2ccnc(C(F)(F)F)c2)cc1 (stereo not shown) is 116

activity (%) at 10 μM for Cn1ccc(-c2ccc(CN3Cc4cccc(O[C@@H]5COCC[C@H]5O)c4C3=O)cc2)n1 is 103

activity (%) at 10 μM for N#Cc1ccc(CN2Cc3cccc(O[C@H]4CCCC[C@@H]4O)c3C2=O)cc1 (relative stereo) is 98

activity (%) at 10 μM for Cn1cc(-c2ccc(CN3Cc4ccnc(OCC5CC5)c4C3=O)c(F)c2)nn1 is 104

activity (%) at 10 μM for Cc1nn(C)cc1-c1ccc(CN2Cc3ccnc(OCC4CCCCO4)c3C2=O)cc1 (stereo not shown) is 99

activity (%) at 10 μM for O=C1c2c(cccc2O[C@H]2CCCC[C@@H]2O)CN1Cc1ccc(-n2cccn2)cc1 (relative stereo) is 89

activity (%) at 10 μM for O=C1c2c(ccnc2OCC2CCCO2)CN1Cc1ccc(-c2cc[nH]n2)cc1 (stereo not shown) is 114

activity (%) at 10 μM for O=C1c2c(cccc2O[C@@H]2CCOC[C@H]2O)CN1Cc1ccc(F)cc1F (single isomer, unassigned) is 91

activity (%) at 10 μM for Cn1cc(-c2ccc(CN3Cc4ccnc(OCCC5CC5)c4C3=O)c(F)c2)nn1 is 109

activity (%) at 10 μM for Cc1ccn(-c2ccc(CN3Cc4cccc(O[C@H]5CCC[C@@H]5O)c4C3=O)cc2)n1 (relative stereo) is 117

activity (%) at 10 μM for Cc1cc(-c2ccc(CN3Cc4ccnc(O[C@H]5CCC[C@@H]5O)c4C3=O)cc2)ccn1 (relative stereo) is 108

activity (%) at 10 μM for CCNC(=O)c1ccc(CN2Cc3ccnc(Oc4ccc(C)cc4F)c3C2=O)c(F)c1 is 100

activity (%) at 10 μM for O=C1c2c(cccc2O[C@H]2CCCC[C@@H]2O)CN1Cc1cccc(Br)c1 (relative stereo) is 100

activity (%) at 10 μM for Cn1cc(-c2ccc(CN3Cc4ccnc(Oc5ccc(C(O)C(F)(F)F)cc5F)c4C3=O)cc2)cn1 (stereo not shown) is 89

activity (%) at 10 μM for C[C@@H](O)[C@@H](C)Oc1nccc2c1C(=O)N(Cc1c(F)cc(F)cc1F)C2 is 102

activity (%) at 10 μM for O=C1c2c(ccnc2OCC2CCCO2)CN1Cc1ccc(-c2cnn(CC3CC3)c2)cc1 (stereo not shown) is 103

activity (%) at 10 μM for Cc1cc(-c2ccc(CN3Cc4ccnc(Oc5ccc(C#N)cc5F)c4C3=O)cc2)on1 is 103

activity (%) at 10 μM for CCNC(=O)c1ccc(CN2Cc3ccnc(Oc4ccc(C)cc4F)c3C2=O)cc1 is 95

activity (%) at 10 μM for Cc1cc(-c2ccc(CN3Cc4ccnc(Oc5ccc(C(F)F)cc5F)c4C3=O)cc2)cnn1 is 105

activity (%) at 10 μM for Cn1cc(-c2ccc(CN3Cc4cccc(O[C@H]5CCCC[C@@H]5O)c4C3=O)cn2)cn1 (relative stereo) is 97

activity (%) at 10 μM for Cn1cc(-c2ccc(CN3Cc4ccnc(OC5c6ncccc6CC5(C)C)c4C3=O)cc2)cn1 (stereo not shown) is 104

activity (%) at 10 μM for Cc1cc(-c2ccc(CN3Cc4ccnc(Oc5c(F)cc(C#N)cc5F)c4C3=O)cc2)ccn1 is 106

activity (%) at 10 μM for Cn1ccc(-c2ccc(CN3Cc4ccnc(O[C@H]5CCC[C@@H]5O)c4C3=O)c(F)c2)n1 (relative stereo) is 109

activity (%) at 10 μM for Cc1cc(-c2ccc(CN3Cc4ncnc(Oc5c(F)cc(F)cc5F)c4C3=O)cc2)ccn1 is 101

activity (%) at 10 μM for Cn1ccc(-c2ccc(CN3Cc4ncnc(Oc5c(F)cccc5F)c4C3=O)cc2)n1 is 96

activity (%) at 10 μM for Cc1cc(C)c(Oc2nccc3c2C(=O)N(Cc2ccc(-c4ccn(C)n4)cc2)C3)c(F)c1 is 103

activity (%) at 10 μM for CNC(=O)c1ccc(CN2Cc3ccnc(Oc4ccc(C5CC5)cc4F)c3C2=O)cc1 is 93

activity (%) at 10 μM for O=C1c2c(ccnc2O[C@H]2CCCC[C@@H]2O)CN1Cc1cccs1 (relative stereo) is 94

activity (%) at 10 μM for C=C(C)c1ccc(Oc2nccc3c2C(=O)N(Cc2ccc(-c4cnnc(C)c4)cc2)C3)c(F)c1 is 102

activity (%) at 10 μM for Cc1nn(C)cc1-c1ccc(CN2Cc3ccnc(OC4CCC4)c3C2=O)cc1 is 102

FYI, the data here is from patent US9777005B2.
